- procedure-details: Phase I single-dose clinical trial, pharmacokinetics
- Assay type: in vivo
- assay-conditions: human, plasma, oral; single administration, 10 mg to 800 mg; read-out: MRT, range over dose groups
- Experimental: In this example, 96 healthy Chinese aged 18 to 45 were recruited as subjects. […] The analysis was performed using the Per-protocol set. […] The main pharmacokinetic parameters of each subject were calculated using a non-compartmental model, and the linear relationship between dose and Cmax and AUC0-t was analyzed using a power function model.

smiles: C=CC(=O)N1CCC[C@@H](n2nc(-c3ccc(Oc4ccccn4)cc3)c3c(N)n[nH]c(=O)c32)C1
MRT: 1.53 to 4.25 h

###

- measured-target: BTK (Homo sapiens, UniProt Q06187)
- Sequence (Q06187 whole entry): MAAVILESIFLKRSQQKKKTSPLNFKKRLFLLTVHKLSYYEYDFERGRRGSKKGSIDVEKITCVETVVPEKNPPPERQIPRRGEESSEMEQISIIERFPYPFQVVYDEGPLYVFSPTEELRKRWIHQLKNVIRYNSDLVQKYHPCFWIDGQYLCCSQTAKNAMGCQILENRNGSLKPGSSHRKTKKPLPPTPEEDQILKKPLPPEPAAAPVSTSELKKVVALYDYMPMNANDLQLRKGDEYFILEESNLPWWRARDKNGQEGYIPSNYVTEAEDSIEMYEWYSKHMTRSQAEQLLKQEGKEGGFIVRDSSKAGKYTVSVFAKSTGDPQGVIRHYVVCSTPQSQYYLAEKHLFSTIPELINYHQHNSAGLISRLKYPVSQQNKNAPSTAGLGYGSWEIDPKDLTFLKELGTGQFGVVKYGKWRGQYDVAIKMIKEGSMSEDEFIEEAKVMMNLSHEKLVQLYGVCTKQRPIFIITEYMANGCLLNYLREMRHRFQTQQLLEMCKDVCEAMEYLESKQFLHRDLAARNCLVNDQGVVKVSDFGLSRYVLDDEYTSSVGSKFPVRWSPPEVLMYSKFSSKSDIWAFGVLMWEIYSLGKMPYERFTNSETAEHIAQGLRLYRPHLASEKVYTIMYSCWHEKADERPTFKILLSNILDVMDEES
- procedure-details: Inhibition of BTK kinase activity (HTRF)
- Assay type: biochemical

smiles: C=CC(=O)N1CCC[C@@H](n2nc(-c3ccc(Oc4ccccn4)cc3)c3c(N)n[nH]c(=O)c32)C1
measured-target: BTK (Homo sapiens, UniProt Q06187)
IC50: ≤ 4 nM
